Target: SOS-mediated nucleotide exchange on Ras (Homo sapiens)
Sequence (Q07889 1-1333): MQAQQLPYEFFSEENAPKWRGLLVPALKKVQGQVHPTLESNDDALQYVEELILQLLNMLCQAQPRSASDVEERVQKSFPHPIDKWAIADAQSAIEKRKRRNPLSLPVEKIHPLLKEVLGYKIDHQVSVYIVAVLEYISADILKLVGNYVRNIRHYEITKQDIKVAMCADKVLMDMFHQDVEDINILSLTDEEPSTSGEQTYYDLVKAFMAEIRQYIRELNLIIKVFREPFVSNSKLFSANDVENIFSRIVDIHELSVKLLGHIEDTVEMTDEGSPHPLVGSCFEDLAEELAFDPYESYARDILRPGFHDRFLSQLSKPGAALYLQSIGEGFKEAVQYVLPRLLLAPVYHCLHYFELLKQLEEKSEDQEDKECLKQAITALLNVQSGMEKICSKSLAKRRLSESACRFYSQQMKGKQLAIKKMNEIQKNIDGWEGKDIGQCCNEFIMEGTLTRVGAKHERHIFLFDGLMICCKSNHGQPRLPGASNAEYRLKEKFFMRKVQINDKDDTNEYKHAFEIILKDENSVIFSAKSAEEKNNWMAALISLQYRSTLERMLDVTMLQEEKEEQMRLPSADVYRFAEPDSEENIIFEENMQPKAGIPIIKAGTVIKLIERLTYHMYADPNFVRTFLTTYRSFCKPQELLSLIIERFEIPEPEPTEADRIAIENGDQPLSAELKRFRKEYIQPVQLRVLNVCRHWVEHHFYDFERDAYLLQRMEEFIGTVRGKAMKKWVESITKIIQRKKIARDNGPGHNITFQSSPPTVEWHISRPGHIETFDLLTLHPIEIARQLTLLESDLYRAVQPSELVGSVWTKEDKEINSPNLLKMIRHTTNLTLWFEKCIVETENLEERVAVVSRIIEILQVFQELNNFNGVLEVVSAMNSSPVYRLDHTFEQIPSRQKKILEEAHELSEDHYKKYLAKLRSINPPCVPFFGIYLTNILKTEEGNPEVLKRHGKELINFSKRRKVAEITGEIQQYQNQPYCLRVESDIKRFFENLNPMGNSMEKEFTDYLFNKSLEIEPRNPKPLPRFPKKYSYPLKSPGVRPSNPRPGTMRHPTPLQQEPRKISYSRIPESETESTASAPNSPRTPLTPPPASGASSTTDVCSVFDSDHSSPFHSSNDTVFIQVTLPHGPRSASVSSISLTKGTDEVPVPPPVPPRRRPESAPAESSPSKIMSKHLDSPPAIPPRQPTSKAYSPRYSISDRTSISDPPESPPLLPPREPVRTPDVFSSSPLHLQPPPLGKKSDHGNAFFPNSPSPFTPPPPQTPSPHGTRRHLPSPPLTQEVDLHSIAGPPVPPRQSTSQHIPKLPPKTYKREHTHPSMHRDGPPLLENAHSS
Experiment: SOS-mediated nucleotide exchange on Ras (BODIPY-GDP fluorescence)
Details: Ras loaded with BODIPY-GDP, GTP and SOS added; EC50 from derived exchange rates
pEC50: −log10 of the molar value.
PROPERTY: pEC50

[
  {
    "MOLECULE": "C[C@@H](Nc1nc(Nc2ccc(F)c(Cl)c2)nc2c(NC3CNC3)cccc12)C1CC1 [Example 112]",
    "TARGET_ENTITY": "SOS-mediated nucleotide exchange on Ras (Homo sapiens)",
    "pEC50": "5.30 to 6.00"
  },
  {
    "MOLECULE": "Fc1ccc(Nc2nc(NC(C3CC3)C3CC3)c3ccccc3n2)cc1Cl [Example 21]",
    "TARGET_ENTITY": "SOS-mediated nucleotide exchange on Ras (Homo sapiens)",
    "pEC50": "5.30 to 6.00"
  },
  {
    "MOLECULE": "C1=C(c2cccc3c(NC(C4CC4)C4CC4)nc(NCC4CCCCC4)nc23)CCNC1 [Example 73]",
    "TARGET_ENTITY": "SOS-mediated nucleotide exchange on Ras (Homo sapiens)",
    "pEC50": "5.30 to 6.00"
  }
]

# next molecule below
I'd like to know its pEC50. The molecule in question is C[C@@H](Nc1nc(Nc2ccc(F)c(Cl)c2)nc2c(CCN)cccc12)C(C)(C)C [Example 82]
4.52 to 5.30

The values you see were collected from patent US11318137B2.
